- System: Calu-3
- measurement.protocol: drug sensitivity score (DSS) for viability; higher = more toxic; extreme values may be limits of the assay
- setup.conditions: 72 h
measured.parameter: drug sensitivity score

Please review the following examples before continuing.
molecule	drug sensitivity score
CC(=O)Nc1ccc(OCC(O)CNC(C)C)cc1 (stereo not given)	0
O=C(c1ccc(F)cc1)C1CCN(CCn2c(=S)[nH]c3ccccc3c2=O)CC1	0
CC(=O)O[C@H]1CC[C@@]2(C)C(=CC[C@@H]3[C@@H]2CC[C@]2(C)C(c4cccnc4)=CC[C@@H]32)C1 [abiraterone-acetate]	0
CN1CCN(c2ncc(-c3cc(Cl)cc(Cl)c3Cl)c(N)n2)CC1	0
CN(c1ccc(NC(=O)Nc2ccccc2)cc1)S(=O)(=O)c1cnn(-c2ccc(F)cc2)c1	0
CCN1CCN(c2ccc(C(C)(C)NC(=O)c3cc4[nH]c5ccccc5c(=O)c4cc3F)cn2)CC1	5.6
CC(C)(C)c1ccc(S(=O)(=O)/C=C/C#N)cc1	3.1
C1CCC(NC2CCCCC2)CC1	0

So what does the record say about drug sensitivity score for O=C1CCCN1CC#CCN1CCCC1 [oxotremorine-sesquifumarate] ?
0

So what does the record say about drug sensitivity score for `O=C1C(=O)N(Cc2ccc(Cl)c(Cl)c2)c2ccccc21` ?
0

So what does the record say about drug sensitivity score for `CC(C)Oc1ccc2c(=O)c3cc(C(=O)O)ccc3oc2c1` ?
0

So what does the record say about drug sensitivity score for `CC(C)(C)c1cc(O)c(C(C)(C)C)cc1O` ?
0

So what does the record say about drug sensitivity score for `N[C@@H](Cn1ccc(=O)n(Cc2ccccc2C(=O)O)c1=O)C(=O)O` ?
0

So what does the record say about drug sensitivity score for `Cc1[nH]c2ccc(Cl)cc2c1C1=CCNCC1` ?
0

So what does the record say about drug sensitivity score for `CC(C)c1nnc(-c2ccc(-c3ccccc3)nc2)n1-c1cccc2nonc12` ?
0

So what does the record say about drug sensitivity score for `CCCc1c2oc(C(=O)O)cc(=O)c2cc2c(=O)cc(C(=O)O)n(CC)c12` ?
0

So what does the record say about drug sensitivity score for `N=C1NC(=O)/C(=C/c2ccc(O)cc2)S1` ?
0.1

So what does the record say about drug sensitivity score for `Cc1[nH]c(=O)c(C#N)cc1-c1ccc2nccn2c1` ?
0

So what does the record say about drug sensitivity score for `CC(C)(C)c1ccc(S(=O)(=O)NCc2ccc(C(=O)Nc3cccnc3)cc2)cc1` ?
4.7

So what does the record say about drug sensitivity score for `O=c1oc2cc(O)ccc2s1` ?
1.9

###

# cell viability annotations
- Test system: Vero E6
- measurement.protocol: cell viability relative to DMSO; higher = less toxic
- setup.conditions: 72 h; 1 nM

compound	subject.of.test	cell viability
O=C(N[C@H]1CN2CCC1CC2)c1cc2cccc(Cl)c2s1	Vero E6	95.6%

So what does the record say about cell viability for `Cc1cccc(-c2[nH]c(C(C)(C)C)nc2-c2ccc3c(c2)OCO3)n1` ?
104%

So what does the record say about cell viability for CCN(CC)C(=O)N[C@H]1C=C2c3cccc4[nH]cc(c34)C[C@H]2N(C)C1 [lisuride] ?
97.7%

So what does the record say about cell viability for `CCOc1cc(C=O)ccc1O` ?
106%

So what does the record say about cell viability for `Cc1ccc(C(=O)N(CCCN)[C@@H](c2oc3cc(Cl)ccc3c(=O)c2Cc2ccccc2)C(C)C)cc1` ?
99.4%

So what does the record say about cell viability for `c1ccc(Cn2c(N3CCNCC3)nc3ccccc32)cc1` ?
103%

So what does the record say about cell viability for `C[C@](N)(Cc1ccc(O)cc1)C(=O)O` ?
95.8%

###

- Tested on: Calu-3
- measurement.protocol: cell viability relative to DMSO; higher = less toxic
- setup.conditions: 72 h; 10000 nM
Returns: string. Value is 1 if measured cell viability is below 90%, and 0 if it is greater than or equal to it.

compound	subject.of.test	qualitative.label
CC(C)OC(=O)C(C)(C)Oc1ccc(C(=O)c2ccc(Cl)cc2)cc1 [fenofibrate]	Calu-3	0
Cc1cc(C(=O)NOCCO)c(Nc2ccc(I)cc2F)n(C)c1=O	Calu-3	1
CN(C(=O)Cc1ccccc1)[C@H](CN1CCCC1)c1ccccc1	Calu-3	0
CC[C@@H](C)N(C)C(=O)c1cc2ccccc2c(-c2ccccc2Cl)n1	Calu-3	0
O=C(O)CCc1ccc(NCc2cccc(Oc3ccccc3)c2)cc1	Calu-3	0
Cc1ccc(C(=O)N(CCCN)[C@@H](c2oc3cc(Cl)ccc3c(=O)c2Cc2ccccc2)C(C)C)cc1	Calu-3	1

is_below(cell viability, 90%) for `CC(C)(CO)[C@@H](O)C(=O)NCCC(=O)O` ?
0

is_below(cell viability, 90%) for `C[C@@H](O[C@H]1OCCN(Cc2nn[nH]c2CN(C)C)[C@H]1c1ccc(F)cc1)c1cc(C(F)(F)F)cc(C(F)(F)F)c1` ?
1

is_below(cell viability, 90%) for `CCOC(N)=O` ?
0

is_below(cell viability, 90%) for `CN(c1ccc(NC(=O)Nc2ccccc2)cc1)S(=O)(=O)c1cnn(-c2ccc(F)cc2)c1` ?
0

###

- Tested on: Caco-2
- measurement.protocol: relative viability EC50 (midpoint between 100% and the lowest measured viability); higher = less toxic
- setup.conditions: 72 h
measured.parameter: relative viability EC50

Please review the following examples before continuing.
compound	relative viability EC50
Nc1nc(NC[C@H]2CC[C@H](CNS(=O)(=O)c3cccc4ccccc34)CC2)nc2ccccc12	2.71 µM
O=C(c1cncc(Br)c1)N1CCC(N2CCCC2)CC1 [UNC669]	> 10 µM
C=C1/C(=C\C=C2/CCC[C@]3(C)[C@@H]([C@H](C)CCCC(O)(C(F)(F)F)C(F)(F)F)CC[C@@H]23)C[C@@H](O)C[C@@H]1O [falecalcitriol]	> 10 µM
Cc1cnc(Nc2ccc(N3CCN(C)CC3)cc2)nc1Nc1cccc(S(=O)(=O)NC(C)(C)C)c1	1.2 µM
CCc1cccc(N(C)C(=N)Nc2cccc3ccccc23)c1 [aptiganel]	> 10 µM
CC(C)c1cccc2c1OC(C(C)C)C(=S)N2CC(=O)O (stereo not drawn) [AD-5467]	> 10 µM
N[C@@H](CSS(=O)(=O)O)C(=O)O [S-sulfo-L-cysteine]	> 10 µM

Next:
Notebook entry, Caco-2 assay: relative viability EC50 of COc1ccc2cc(-c3cc(-c4cc(Cl)cc(Cl)c4)nn3[C@@H](C)c3ccc(C(=O)NCCC(=O)O)cc3)ccc2c1 [MK-0893] = ?
> 10 µM

###

- Test system: Calu-3
- measurement.protocol: relative viability EC50 (midpoint between 100% and the lowest measured viability); higher = less toxic
- setup.conditions: 72 h
measured.parameter: relative viability EC50

compound	subject.of.test	endpoint.result
N[C@@H](CSS(=O)(=O)O)C(=O)O	Calu-3	> 10 µM
CC(=O)N[C@@H](C=O)[C@@H](O)[C@H](O)[C@H](O)CO	Calu-3	> 10 µM

So what does the record say about relative viability EC50 for `Cc1ccc(C(=O)N(CCCN)[C@@H](c2oc3cc(Cl)ccc3c(=O)c2Cc2ccccc2)C(C)C)cc1` ?
2.33 µM

So what does the record say about relative viability EC50 for `CC(C)(CO)[C@@H](O)C(=O)NCCC(=O)O` ?
> 10 µM

So what does the record say about relative viability EC50 for `CC(C)n1nc(-c2cc3cc(O)ccc3[nH]2)c2c(N)ncnc21` ?
0.203 µM

So what does the record say about relative viability EC50 for `CC[C@@H](C)N(C)C(=O)c1cc2ccccc2c(-c2ccccc2Cl)n1` ?
> 10 µM

So what does the record say about relative viability EC50 for Cc1ncc([N+](=O)[O-])n1CC(O)CCl (centres undefined) ?
> 10 µM

So what does the record say about relative viability EC50 for `COc1cc2ncc(-c3ccccc3)nc2cc1OC` ?
> 10 µM

So what does the record say about relative viability EC50 for CC(=O)Nc1ccc(OCC(O)CNC(C)C)cc1 (centres undefined) ?
> 10 µM

So what does the record say about relative viability EC50 for `COc1cc2c(cc1OC)CN(C(=O)[C@@H](NCc1ccncc1)C(C)(C)C)CC2` ?
> 10 µM

So what does the record say about relative viability EC50 for `O=C(Nc1cc2cc[nH]c2cn1)c1ccccc1` ?
> 10 µM

So what does the record say about relative viability EC50 for `C[C@]12CC[C@@H](O)C[C@@H]1CC[C@@H]1[C@@H]2CC[C@]2(C)C(c3ccccc3)=CC[C@@H]12` ?
> 10 µM

So what does the record say about relative viability EC50 for CC(C)OC(=O)C(C)(C)Oc1ccc(C(=O)c2ccc(Cl)cc2)cc1 [fenofibrate] ?
> 10 µM

So what does the record say about relative viability EC50 for `C1CCC(NC2CCCCC2)CC1` ?
> 10 µM

###

- System: HepG2
- measurement.protocol: cell viability relative to DMSO; higher = less toxic
- setup.conditions: 72 h; 10000 nM
# cell viability annotations
# unit: % | format: bare number

molecule	endpoint.result
O=C(NNc1ccccc1)c1ccncc1	77.8
CC(C)n1nc(-c2cc3cc(O)ccc3[nH]2)c2c(N)ncnc21	19.8
Cc1nc2ccccc2n1Cc1ccc(Cl)cc1	25.1
Cc1cc(C(N)=O)ccc1-n1c(CCC(=O)O)ccc1-c1ccc(-n2ccnc2)cc1	104
CCCCC1=NC2(CCCC2)C(=O)N1Cc1ccc(-c2ccccc2-c2nnn[nH]2)cc1	106
O=C(O)CCc1ccc(NCc2cccc(Oc3ccccc3)c2)cc1	96
CC[C@H]1OC(=O)[C@H](C)[C@@H](O[C@H]2C[C@@](C)(OC)[C@@H](O)[C@H](C)O2)[C@H](C)[C@@H](O[C@@H]2O[C@H](C)C[C@H](N(C)C)[C@H]2O)[C@](C)(O)C[C@@H](C)CN(C)[C@H](C)[C@@H](O)[C@]1(C)O	92

So what does the record say about cell viability for CCCN(CCC)C(=O)C(CCC(=O)O)NC(=O)c1ccccc1 (stereo not drawn) [proglumide] ?
106
